target: human recombinant mGluR5 (Homo sapiens, UniProt P41594); construct: expressed in transfected cells; host or cells: HEK 293 cell line, cultured with tetracycline, hygromycin and geneticin; tetracycline is withdrawn 3-7 days before the assay; experiment: positive modulation of mGluR5, calcium based FLIPR assay; type: cell-based; conditions: EC50 of the modulation; HEK 293 cell line expressing human recombinant mGluR5; peak height of Ca fluorescence signal after glutamate at approx. 5% basal stimulation; read-out: EC50
Sequence (P41594 21-1212): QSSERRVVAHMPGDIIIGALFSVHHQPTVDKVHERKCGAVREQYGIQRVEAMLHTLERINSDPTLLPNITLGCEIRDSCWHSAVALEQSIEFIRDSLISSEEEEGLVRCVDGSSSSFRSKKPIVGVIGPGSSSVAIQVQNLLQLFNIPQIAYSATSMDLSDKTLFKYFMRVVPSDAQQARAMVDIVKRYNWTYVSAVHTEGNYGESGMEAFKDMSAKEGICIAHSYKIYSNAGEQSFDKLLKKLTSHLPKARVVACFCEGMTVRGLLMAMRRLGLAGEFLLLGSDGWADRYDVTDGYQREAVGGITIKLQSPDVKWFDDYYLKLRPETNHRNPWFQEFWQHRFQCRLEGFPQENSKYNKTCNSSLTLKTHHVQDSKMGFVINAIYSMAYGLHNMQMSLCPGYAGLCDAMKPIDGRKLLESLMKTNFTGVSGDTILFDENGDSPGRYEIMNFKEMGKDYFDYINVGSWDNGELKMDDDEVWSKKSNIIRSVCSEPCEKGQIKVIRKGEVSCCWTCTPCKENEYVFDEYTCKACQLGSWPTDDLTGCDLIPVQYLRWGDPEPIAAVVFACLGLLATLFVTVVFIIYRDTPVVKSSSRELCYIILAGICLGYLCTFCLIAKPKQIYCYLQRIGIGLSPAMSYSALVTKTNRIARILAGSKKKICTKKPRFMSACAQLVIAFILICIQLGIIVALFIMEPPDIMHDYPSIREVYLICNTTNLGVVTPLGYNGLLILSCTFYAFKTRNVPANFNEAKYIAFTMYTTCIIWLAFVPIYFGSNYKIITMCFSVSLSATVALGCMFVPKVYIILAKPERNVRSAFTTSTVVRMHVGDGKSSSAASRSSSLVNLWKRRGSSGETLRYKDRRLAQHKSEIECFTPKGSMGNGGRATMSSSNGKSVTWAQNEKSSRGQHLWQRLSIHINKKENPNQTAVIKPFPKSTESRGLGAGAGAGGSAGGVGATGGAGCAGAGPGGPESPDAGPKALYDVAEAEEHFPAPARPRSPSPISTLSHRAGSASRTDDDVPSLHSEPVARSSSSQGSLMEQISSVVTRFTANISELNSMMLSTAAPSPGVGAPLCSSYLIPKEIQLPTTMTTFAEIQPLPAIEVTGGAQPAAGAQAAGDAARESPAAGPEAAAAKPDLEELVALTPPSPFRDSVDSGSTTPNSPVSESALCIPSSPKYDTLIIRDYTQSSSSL
Consider the following compounds; for each one, report its pEC50.
Units for pEC50: none; it is -log10 of a concentration expressed in mol/L.

Record Cc1nc2c(o1)CCN(C(=O)Cn1nc(-c3ccc(F)cc3)nc1-c1ccc(F)cc1)CC2 . Reported pEC50: 7.24

Record O=C(Cn1nc(-c2ccc(F)cc2)nc1-c1ccc(F)cc1)N1CCc2cn[nH]c2CC1 . Reported pEC50: 6.15

Record COc1cccc2c1CCN(C(=O)Cn1nc(-c3ccc(F)cc3)nc1-c1ccc(F)cc1)C2 . Reported pEC50: 6.18
